Molecular target: Cathepsin V (Homo sapiens, UniProt O60911)
Construct: made in house; host or cells: Pichia pastoris
Sequence (O60911 114-334): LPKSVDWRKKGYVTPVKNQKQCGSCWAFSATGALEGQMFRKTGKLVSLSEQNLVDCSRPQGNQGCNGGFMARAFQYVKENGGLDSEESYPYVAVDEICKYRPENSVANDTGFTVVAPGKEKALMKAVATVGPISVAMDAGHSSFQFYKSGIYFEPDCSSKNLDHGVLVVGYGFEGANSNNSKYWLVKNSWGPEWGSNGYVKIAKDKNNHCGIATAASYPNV
Test: Determination of Ki values and mode of inhibition
Format: biochemical
Readout name: mode of inhibition of cathepsin V

Use the examples below as a reference point.
Compound	Value reported
CC(=O)c1cccc(NC(=O)c2cnc3sccn3c2=O)c1	competitive
Cc1cc(OCc2ccccc2)c(C(=O)C2OC2c2cc3ccccc3o2)cc1C (stereo not drawn)	noncompetitive
CCCNC(=O)[C@H]1O[C@@H]1C(=O)N[C@H](C(=O)N1CCC[C@@H]1C(=O)OC)[C@@H](C)CC	competitive
O=C(NCc1cccc2ccccc12)NCC1CCN(C(=O)Oc2ccccc2)CC1	competitive

Prompt line: Recorded mode of inhibition of cathepsin V of `O=C(NCC1CCN(C(=O)Oc2ccccc2)CC1)NC(c1ccccc1)c1ccccc1` , please.
Response line: noncompetitive
